B1: TPR 5TU (parent)
chain: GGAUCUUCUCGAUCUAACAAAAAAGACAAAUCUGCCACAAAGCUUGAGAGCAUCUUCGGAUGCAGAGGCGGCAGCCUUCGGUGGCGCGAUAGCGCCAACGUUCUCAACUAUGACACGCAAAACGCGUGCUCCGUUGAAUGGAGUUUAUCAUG

# Variants of: B1
# assay: polymerase ribozyme fitness, log enrichment relative to wild type (log ratio); higher = more active; in vitro selection for triplet polymerase activity
This sample holds only a part of the variants without activity.
Measured polymerase ribozyme fitness (log ratio) by item

Check out these entries, answers already filled in.
1) U61A U90G U139C	≤ -4.2
2) C5U A29U G62A G67C A142U	≤ -4.2

Input line: Note down polymerase ribozyme fitness (log ratio) recorded for A22U A29G A150G
Output line: ≤ -4.2

Input line: Note down polymerase ribozyme fitness (log ratio) recorded for C85U G86C G88A U90G A121U G128A
Output line: ≤ -4.2

Input line: Note down polymerase ribozyme fitness (log ratio) recorded for A49C A52G C72A
Output line: ≤ -4.2

Input line: Note down polymerase ribozyme fitness (log ratio) recorded for A29C A39U A52C U101G C125G G126A G143U U146C
Output line: ≤ -4.2

Input line: Note down polymerase ribozyme fitness (log ratio) recorded for G48U C149G
Output line: ≤ -4.2

Input line: Note down polymerase ribozyme fitness (log ratio) recorded for U7C A19C C57G C85U C96U U148A
Output line: ≤ -4.2

Input line: Note down polymerase ribozyme fitness (log ratio) recorded for A21U A24U A64C U101G A110G A138C U145A
Output line: ≤ -4.2

Input line: Note down polymerase ribozyme fitness (log ratio) recorded for U7C C38A C51G G83U G84A
Output line: ≤ -4.2

Input line: Note down polymerase ribozyme fitness (log ratio) recorded for A39U C76G G92U C108U
Output line: ≤ -4.2
